Data origin: ChEMBL document CHEMBL1201862

# Test system: HOP-92
# protocolNotes: NCI tumour cell line growth inhibition, 48 h
Calls of active or inactive are those of the source. Rule as the data show it: active = GI50 up to about 1.1 µM and inactive = higher.
endpointName: GI50

INSERT INTO assay_data (compound, experimentalresult) VALUES
  ('COc1ccc2oc(C(=O)O)c3c2c1CCC3', '42.5 µM (inactive)'),
  ('CC(C)=CCNc1ncnc2[nH]cnc12', '> 100 µM (inactive)'),
  ('C=CCc1cccc2cc(C(=O)NC3CCCCC3)c(=N)oc12', '35 µM (inactive)'),
  ('C=CC1(C)CCC2C(=CCC3C2(C)CC(O)C(O)C3(C)COC2OC(CO)C(O)C(O)C2O)C1 (stereo unspecified)', '> 100 µM (inactive)'),
  ('COc1cc(/C=C2/SC(c3ccccc3)N(c3cccc(NC(C)=O)c3)C2=O)cc(OC)c1OC (stereo unspecified)', '85.3 µM (inactive)'),
  ('C/C=C/C=C\C(=O)C1c2cccc(O)c2C(=O)c2c(O)cc(C)cc21 (stereo unspecified)', '1.39 µM (inactive)'),
  ('Cn1c(-c2ccccc2)c2cc3nc4ccccc4nc3cc2c1-c1ccccc1', '25.3 µM (inactive)'),
  ('COc1cc(C(=O)Oc2ccc3c(c2)OCO3)cc(OC)c1OC', '> 100 µM (inactive)'),
  ('CCc1ccc(CCN2CCCCC2)nc1', '46.3 µM (inactive)'),
  ('Cc1c(C(=O)CC(=O)C(=O)Nc2ccc(Cl)c(Cl)c2)[n+]([O-])c2ccccc2[n+]1[O-]', '27.5 µM (inactive)'),
  ('O=c1/c(=C/c2cccc([N+](=O)[O-])c2)sc2nc3ccccc3n12', '> 10 µM (inactive)');

----------
# Test system: K562
# protocolNotes: NCI tumour cell line growth inhibition, 48 h
The source made the active and inactive calls. No stated cut-off is given here; in the data, active = GI50 up to about 1.1 µM and inactive = higher.
Outcome codes: Yes (active), No (inactive)

INSERT INTO assay_data (molecule, answerlabel) VALUES
  ('Clc1cccc2c1OCC1C(c3ccccc3)=NN(c3ccccc3)C21 (stereo unspecified)', 'No'),
  ('CN(C)CCNC(=O)c1cccc2c(NC(CS)C(=O)O)c3ccccc3[n+](C)c12 (stereo unspecified)', 'No'),
  ('Nc1ccc(C2SCC(=O)N2NS(=O)(=O)c2cccc(C(=O)O)c2)cc1 (stereo unspecified)', 'No'),
  ('CCSC1=N/C(=C\c2ccco2)C(NN)=N1', 'No'),
  ('O=C(O)c1cc(C(=O)O)cc(N2C(=O)c3ccccc3C2=O)c1', 'No'),
  ('CCCCNC(=S)Nc1nc(C(=O)NNS(=O)(=O)c2ccccc2)cs1', 'No'),
  ('CC(SC(=S)N(C)C)C(=O)Nc1nnc(-c2ccc(Cl)cc2)o1 (stereo unspecified)', 'No'),
  ('Cc1c(C(=O)CC(=O)C(=O)Nc2ccc(Cl)c(Cl)c2)[n+]([O-])c2ccccc2[n+]1[O-]', 'No'),
  ('O=C1C(Br)=Cc2c(Cl)sc(Cl)c21', 'Yes'),
  ('O=C(CC(=O)N1N=C(N(c2ccccc2)c2ccccc2)CC1c1ccccc1)Nc1ccc(Cl)cc1 (stereo unspecified)', 'No'),
  ('Nc1nc2c(c(-c3ccccc3Cl)n1)COC/C2=C\c1ccccc1Cl', 'No');

----------
# Test system: MDA-MB-435
# protocolNotes: NCI tumour cell line growth inhibition, 48 h
Active and inactive are the calls of the source. Cut-off read from the data, not from the text of the source: active = GI50 up to about 1.1 µM and inactive = higher.
Outcome codes: active, inactive

INSERT INTO measurements (compound, answerlabel) VALUES
  ('COc1cc(C2S/C(=C/c3ccccc3)C(=O)N2c2ccc(NC(C)=O)cc2)cc(OC)c1OC (configuration not stated)', 'inactive'),
  ('COc1cc(CNc2nc3ccccc3nc2-c2cccs2)cc(OC)c1OC', 'inactive'),
  ('CCCCc1c(OC)cc(O)c2c1C(=O)c1[nH]c(C(=O)O)c(O)c(=O)c1C2=O', 'inactive'),
  ('O=C(c1ccccc1)c1ccc(N2C(=O)/C(=C/c3cccc([N+](=O)[O-])c3)N=C2c2ccccc2)c(N2C(=O)/C(=C/c3cccc([N+](=O)[O-])c3)N=C2c2ccccc2)c1', 'inactive'),
  ('COc1cc(/C=C2/SC(c3ccccc3)N(c3cccc(NC(C)=O)c3)C2=O)cc(OC)c1OC (configuration not stated)', 'inactive'),
  ('CCOC(=O)CCC(NC(=O)c1ccc(Nc2cnc3ccc(C(F)(F)F)cc3n2)cc1)C(=O)OCC (configuration not stated)', 'inactive'),
  ('O=C(Nc1ccccc1)N1CCNC1=S', 'inactive'),
  ('CCN(CCCl)c1cc(CN(C)C)cc(NC(=O)c2ccc(C(=O)Nc3cc(CN(C)C)cc(N(CC)CCCl)c3)cc2)c1', 'active'),
  ('O=C1C(Br)=Cc2c(Cl)sc(Cl)c21', 'inactive'),
  ('CC(=O)Nc1ccc(-c2nc3cc(Cl)ccc3o2)cc1', 'inactive'),
  ('C[C@H]1CC(=O)[C@@]2(O)C#C/C=C\C#C[C@@H]3Nc4c(cc(O)c5c4C(=O)c4ccccc4C5=O)[C@]24O[C@]314', 'active'),
  ('C[N+]1(C)[C@@H]2CC[C@H]1C[C@@H](OC(=O)C(CO)c1ccccc1)C2 (some centres not stated) [ATROPINE METHYLBROMIDE]', 'inactive'),
  ('N#Cc1c(N)oc(-c2cccc([N+](=O)[O-])c2)c1C#N', 'inactive'),
  ('C/C(=N\N)C(CN1CCOCC1)C(c1ccccc1)c1c(O)c2ccccc2oc1=O (configuration not stated)', 'inactive'),
  ('COc1ccc2c(c1)CCN1CCc3cc(OC)c(OC)cc3CC21 (configuration not stated)', 'inactive'),
  ('CC1(CO)COC(C)(C)OC1', 'inactive'),
  ('O=C(C/C(=N/O)c1cc(-c2ccccc2)no1)c1ccccc1', 'inactive'),
  ('COc1cccc(/N=N/C(=N/NC(=O)c2cc(Cl)ccc2O)c2ccc(N(CCC#N)CCC#N)cc2C)c1', 'inactive'),
  ('COC(C/C(=C/CO[Si](C(C)C)(C(C)C)C(C)C)C(=O)Nc1ccccc1I)OC', 'inactive'),
  ('O=C1OC(C(O)CO)C(O)=C1O (configuration not stated)', 'inactive'),
  ('CN(C)CCNC(=O)c1cccc2c(NC(CS)C(=O)O)c3ccccc3[n+](C)c12 (configuration not stated)', 'inactive'),
  ('NS(=O)(=O)c1nnc(NC(=O)Nc2ccc(Cl)c(Cl)c2)s1', 'inactive'),
  ('O=C(c1ccc(Cl)c(Cl)c1)N(C(=S)OC12CC3CC(CC(C3)C1)C2)c1ccccc1', 'inactive'),
  ('COC(=O)Cc1cc2c(cc1C(=O)c1ccc(N)cc1)OCO2', 'active'),
  ('CC(=NNC(=S)Nc1ccc(C)cc1)c1cccc(C(C)=NNC(=S)Nc2ccc(C)cc2)n1', 'inactive'),
  ('COc1ccc(N2C(=O)C3c4[nH]c5cccc(C)c5c4C4CCC(C(C)(C)C)CC4C3C2=O)cc1 (configuration not stated)', 'inactive'),
  ('CC1CCC2(OC1)OC1CC3C4CC=C5CC(OC6OC(CO)C(OC7OC(C)C(OC8OC(C)C(O)C(O)C8O)C(O)C7O)C(O)C6OC6OC(C)C(O)C(O)C6O)CCC5(C)C4CCC3(C)C1C2C (configuration not stated)', 'active'),
  ('COc1cc(-c2nc(N)c(C#N)c3c2CCS(=O)(=O)c2ccc(C)cc2-3)cc(OC)c1OC', 'inactive'),
  ('NC(=O)C(=CNC(=S)c1ccncc1)C(N)=O', 'inactive'),
  ('Cc1nc2ccc(Br)cc2c(=O)n1-c1ccc(N)cc1', 'inactive'),
  ('O=Cc1ccccc1B(O)O', 'inactive'),
  ('OCCn1cnc2c(SCc3ccccc3)ncnc21', 'inactive'),
  ('O=C1c2cc3c(cc2NC(c2ccccc2F)C1O)OCO3 (configuration not stated)', 'inactive'),
  ('CCOc1ccc(/N=N/C2C(=O)N(C(=O)CC(=O)Nc3ccccc3OC)N=C2C)cc1 (configuration not stated)', 'inactive'),
  ('O=C(CSCC(=O)N/N=C/c1cccc(C(F)(F)F)c1)N/N=C/c1cccc(C(F)(F)F)c1', 'inactive'),
  ('Cc1c(-c2c(C)c3ccccc3n2S(=O)(=O)c2ccccc2)n(S(=O)(=O)c2ccccc2)c2ccccc12', 'inactive'),
  ('C=C1C(=O)[C@@]23CC[C@@H]4[C@@]5(C)CCC[C@@]4(OC5=O)C2(C)CC[C@]1(OC)C3 (some centres not stated)', 'inactive');

----------
Attribute: GI50
# Test system: DU-145
# protocolNotes: NCI tumour cell line growth inhibition, 48 h
The source made the active and inactive calls. No stated cut-off is given here; in the data, active = GI50 up to about 1.1 µM and inactive = higher.
endpointName: GI50

INSERT INTO results (compound, targetundertest, endpointname, experimentalresult) VALUES
  ('Cn1c(=O)c2nc(CCCc3ccc([N+](=O)[O-])cc3)[nH]c2n(C)c1=O', 'DU-145', 'GI50', '> 100 µM (inactive)'),
  ('c1ccc(CNC2CC(NCc3ccccn3)CC(NCc3ccccn3)C2)nc1 (stereo not given)', 'DU-145', 'GI50', '3.14 µM (inactive)'),
  ('O=C(CSCC(=O)N/N=C/c1cccc(C(F)(F)F)c1)N/N=C/c1cccc(C(F)(F)F)c1', 'DU-145', 'GI50', '> 100 µM (inactive)'),
  ('O=C(/N=N/c1ccccc1Cl)NNc1ccccc1Cl', 'DU-145', 'GI50', '43.2 µM (inactive)'),
  ('CCCCNC(=S)Nc1nc(C(=O)NNS(=O)(=O)c2ccccc2)cs1', 'DU-145', 'GI50', '35.5 µM (inactive)');
